Values from patent US4368203A

- System: Gram-positive and Gram-negative bacteria
- PROCEDURE_SUMMARY: Antibiotic spectra (summary in words)
- Format: cell-based
- TEST_PARAMETERS: genera Citrobacter, Proteus, Klebsiella, Enterobacter, Serratia as named at the place
ATTRIBUTE_MEASURED: Antibiotic activity against Gram-negative bacteria resistant to β-lactam antibiotics

In [3]: df
Out[3]:
                                   compound         measured
0  CCC1C(=O)N2C(C(=O)OC(c3ccccc3)(c3ccccc3)c3ccccc3)=C(SC=CNC(C)=O)CC12 (stereo not shown) [Antibiotic PS-7 trityl ester]  strong activity
1  CC(=O)NCCSC1=C(C(=O)OC(c2ccccc2)(c2ccccc2)c2ccccc2)N2C(=O)C(C(C)C)C2C1 (stereo not shown) [Antibiotic PS-6 trityl ester]  strong activity
2  CC(=O)NCCSC1=C(C(=O)O)N2C(=O)C(C(C)C)C2C1 (stereo not shown) [Antibiotic PS-6]  strong activity

###

- PROCEDURE_SUMMARY: Acute toxicity, intraperitoneal administration
- Type: in vivo, DDY male mice
- TEST_PARAMETERS: mice, 500 mg/kg
ATTRIBUTE_MEASURED: Acute toxicity

In [3]: df
Out[3]:
                                   compound  attribute_measured           measured
0  CC(=O)NCCSC1=C(C(=O)OC(c2ccccc2)(c2ccccc2)c2ccccc2)N2C(=O)C(C(C)C)C2C1 (stereo not shown) [Antibiotic PS-6 trityl ester]      Acute toxicity  no acute toxicity
1  CCC1C(=O)N2C(C(=O)OC(c3ccccc3)(c3ccccc3)c3ccccc3)=C(SC=CNC(C)=O)CC12 (stereo not shown) [Antibiotic PS-7 trityl ester]      Acute toxicity  no acute toxicity
2  CCC1C(=O)N2C(C(=O)O)=C(SC=CNC(C)=O)CC12 (stereo not shown) [Antibiotic PS-7]      Acute toxicity  no acute toxicity

###

Measured MIC on Klebsiella pneumoniae K-2 follows.
Report only the number, with the unit µg/mL understood.

With Klebsiella pneumoniae K-2 as the test system, Cc1nnc(SCC2=C(C(=O)O)N3C(=O)[C@@H](NC(=O)Cn4cnnn4)[C@H]3SC2)s1 showed MIC of 6.25

With Klebsiella pneumoniae K-2 as the test system, CCC1C(=O)N2C(C(=O)OC(c3ccccc3)(c3ccccc3)c3ccccc3)=C(SC=CNC(C)=O)CC12 (stereo not drawn) [Antibiotic PS-7 trityl ester] showed MIC of 10

With Klebsiella pneumoniae K-2 as the test system, CC(=O)NCCSC1=C(C(=O)OC(c2ccccc2)(c2ccccc2)c2ccccc2)N2C(=O)C(C(C)C)C2C1 (stereo not drawn) [Antibiotic PS-6 trityl ester] showed MIC of 20

With Klebsiella pneumoniae K-2 as the test system, O=C(Cc1cccs1)N[C@@H]1C(=O)N2C(C(=O)[O-])=C(C[n+]3ccccc3)CS[C@H]12 showed MIC of 20

With Klebsiella pneumoniae K-2 as the test system, CO[C@@]1(NC(=O)Cc2cccs2)C(=O)N2C(C(=O)O)=C(COC(N)=O)CS[C@@H]21 showed MIC of 6.25

With Klebsiella pneumoniae K-2 as the test system, CC(=O)NCCSC1=C(C(=O)O)N2C(=O)C(C(C)C)C2C1 (stereo not drawn) [Antibiotic PS-6] showed MIC of 12.5
